Biological target: T1, Human CD3eg linker (human)
T1 construct: Single chain: epsilon and gamma subunits of human CD3 joined by a 29-mer linker, Flag-tag at the C-terminus; also called recombinant human CD3
T1 chain: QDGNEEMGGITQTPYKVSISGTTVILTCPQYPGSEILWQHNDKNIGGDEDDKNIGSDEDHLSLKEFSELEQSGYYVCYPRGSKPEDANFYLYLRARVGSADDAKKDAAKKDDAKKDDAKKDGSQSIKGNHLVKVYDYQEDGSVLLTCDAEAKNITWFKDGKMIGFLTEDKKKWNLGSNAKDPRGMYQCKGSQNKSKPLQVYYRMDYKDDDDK
Assay: Biacore SPR, vs template H183/L072
Each entry below carries its reported fold change of affinity.
A complete answer gives the number followed by the unit.

In the examples that follow, each entry is paired with its recorded fold change of affinity.
binder	fold change of affinity
H183/L072 VH N31R (antibody, name in Kabat numbering, V domains shown) VH: QVQLVESGGGLVQPGRSLRLSCAASGFTFSRAWMHWVRQAPGKGLEWVAQIKDKGNAYAAYYAPSVKGRFTISRDDSKNSIYLQMNSLKTEDTAVYYCHYVHYASASTVLPAFGVDAWGQGTTVTVSS VL: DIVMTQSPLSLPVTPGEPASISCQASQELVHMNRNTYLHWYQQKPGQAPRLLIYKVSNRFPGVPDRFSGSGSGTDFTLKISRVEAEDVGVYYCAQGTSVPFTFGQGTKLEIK	0.5 fold
H183/L072 VH H35V (antibody, name in Kabat numbering, V domains shown) VH: QVQLVESGGGLVQPGRSLRLSCAASGFTFSNAWMVWVRQAPGKGLEWVAQIKDKGNAYAAYYAPSVKGRFTISRDDSKNSIYLQMNSLKTEDTAVYYCHYVHYASASTVLPAFGVDAWGQGTTVTVSS VL: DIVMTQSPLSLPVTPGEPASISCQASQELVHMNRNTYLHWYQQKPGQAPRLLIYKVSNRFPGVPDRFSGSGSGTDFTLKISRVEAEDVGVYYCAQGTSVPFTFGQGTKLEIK	0 fold

Now let's try a different one.
// query fold change of affinity value for entry H183/L072 VH K52bA (antibody, name in Kabat numbering, V domains shown) VH: QVQLVESGGGLVQPGRSLRLSCAASGFTFSNAWMHWVRQAPGKGLEWVAQIKDAGNAYAAYYAPSVKGRFTISRDDSKNSIYLQMNSLKTEDTAVYYCHYVHYASASTVLPAFGVDAWGQGTTVTVSS VL: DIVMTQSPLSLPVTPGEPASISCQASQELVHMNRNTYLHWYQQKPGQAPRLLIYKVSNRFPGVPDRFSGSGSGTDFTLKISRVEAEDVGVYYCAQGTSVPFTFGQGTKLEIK 0.7 fold
